Origin of the recorded values: patent US20220146526A1

# protocol-summary: LC/MS of blood plasma sample: number of times of freezing and thawing (Table F)
# Type: physicochemical, human
# test-parameters: detection intensity relative to 1 at 2 times, freezing and thawing 6 times
outcome-measure: Rate of increase or decrease

See these solved cases before continuing.
INSERT INTO measurements (compound, outcome_measure, number) VALUES
  ('Nc1nc2c(ncn2[C@@H]2O[C@H](COP(=O)(O)O)[C@@H](O)[C@H]2O)c(=O)[nH]1 [Guanosine monophosphate]', 'Rate of increase or decrease', 1.95),
  ('O=c1ccn([C@@H]2O[C@H](CO)[C@@H](O)[C@H]2O)c(=O)[nH]1 [Uridine]', 'Rate of increase or decrease', 1.31),
  ('Nc1ccccc1C(=O)CC(N)C(=O)O (stereo not drawn) [Kynurenine]', 'Rate of increase or decrease', 1.37),
  ('O=c1[nH]cnc2nc[nH]c12 [Hypoxanthine]', 'Rate of increase or decrease', 2.04);

a. C[N+](C)(C)CC(O)CC(=O)[O-] (stereo not drawn) [Carnitine]
b. Nc1nc2c(ncn2[C@@H]2O[C@H](CO)[C@@H](O)[C@H]2O)c(=O)[nH]1 [Guanosine]
Ask: Among a and b , which shows a numerically higher Rate of increase or decrease result? Answer by quoting the chosen item's label.
Reply: a

* * *

# protocol-summary: LC/MS of blood plasma sample: time from blood collection to centrifugation (Table D)
# Type: physicochemical, human
# test-parameters: detection intensity, blood collection to centrifugation, after 12 hours vs 15 minutes
outcome-measure: Increase or decrease

INSERT INTO assay_data (compound, result) VALUES
  ('CC(C)C[C@H](N)C(=O)O', 'Decrease'),
  ('N[C@@H](CSSC[C@H](N)C(=O)O)C(=O)O', 'Decrease');

* * *

# protocol-summary: GC/MS of serum sample: number of times of freezing and thawing (Table I)
# Format: physicochemical, human
# Design: key: detection intensity relative to 2 freeze-thaw cycles = 1
# test-parameters: detection intensity relative to 1 at 2 times; serum, GC/MS; freezing and thawing 6 times
outcome-measure: Rate of increase or decrease

INSERT INTO results (molecule, number) VALUES
  ('O=c1cc[nH]c(=O)[nH]1', 1.54);

1. OC[C@H]1O[C@@H](O[C@H]2[C@H](O)[C@@H](O)C(O)O[C@@H]2CO)[C@H](O)[C@@H](O)[C@H]1O (stereo partly shown)
2. O=C[C@H](O)[C@H](O)[C@H](O)[C@H](O)CO
Ask: Among 1 and 2 , which shows a numerically higher Rate of increase or decrease result? Answer by quoting the chosen item's label.
Reply: 1
(1: 1.33, 2: 0.62)

a. Nc1c(O)cccc1C(=O)O [3-Hydroxyanthranyl acid]
b. NCCCCCN
Ask: Among a and b , which shows a numerically higher Rate of increase or decrease result? Answer by quoting the chosen item's label.
Reply: b
(b: 2.31, a: 1.34)

* * *

# protocol-summary: GC/MS of serum sample: number of times of freezing and thawing (Table I)
# Type: physicochemical, human
# Parameters: key: detection intensity relative to 2 freeze-thaw cycles = 1
# test-parameters: 10 times of freezing and thawing; detection intensity relative to 1 at 2 times
# Method: After standing, the blood sample was subjected to centrifugation under a condition of room temperature, 3500 rpm, and 5 minutes. […] After centrifugation, the blood-collecting vessel was left to stand at room temperature, and the serum was isolated during this time. […]
outcome-measure: Rate of increase or decrease

See these solved cases before continuing.
INSERT INTO measurements (compound, number) VALUES
  ('CCCCCCCCCCCCCCCCC(=O)O [Margaric acid, margaric acid]', 1.35),
  ('CC(=O)N[C@@H](CCC(N)=O)C(=O)O [N-acetylglutamine]', 2.17),
  ('CC(=NO)C(=O)O [Pyruvic oxime]', 1.69),
  ('O=C(CO)[C@H](O)[C@@H](O)[C@H](O)CO [Sorbose]', 0.68),
  ('CCCCCCCCC(=O)O [Pelargonic acid, pelargonic acid]', 0.67);

I. OC[C@H]1O[C@@](CO)(O[C@H]2O[C@H](CO)[C@@H](O)[C@H](O)[C@H]2O)[C@@H](O)[C@@H]1O [Sucrose]
II. O=C(O)C(=O)Cc1ccccc1 [Phenylpyruvic acid]
Ask: Among I and II , which shows a numerically higher Rate of increase or decrease result? Answer by quoting the chosen item's label.
Reply: II
(II: 2.06, I: 0.64)

P. NCCc1ccc(O)cc1 [Tyramine]
Q. CCCCCCCCCCCCCCCCCC(=O)OCC(O)CO (stereo not shown) [Monostearin]
R. N[C@H]1C(O)O[C@H](CO)[C@@H](O)[C@@H]1O (stereo partly shown) [Glucosamine]
S. O=C(O)CCCCCCCC(=O)O [Azelaic acid]
T. CCCCCCCCCCCCCCCCCC(=O)O [Stearic acid]
Ask: Arrange the 5 compounds from largest to smallest Rate of increase or decrease. Submit the labels in the order that the ranking request calls for.
Reply: S, P, R, T, Q
(S: 9.39, P: 3.78, R: 2.43, T: 1.33, Q: 0.60)

P. OC[C@@H](O)[C@@H](O)[C@H](O)[C@@H](O)CO [Sorbitol]
Q. NCCCCN [Putrescine]
Ask: Among P and Q , which shows a numerically higher Rate of increase or decrease result? Answer by quoting the chosen item's label.
Reply: Q

* * *

# protocol-summary: GC/MS of serum sample: time from blood collection to centrifugation (Table G)
# Assay type: physicochemical, human
# test-parameters: detection intensity, blood collection to centrifugation, after 4 hours vs 15 minutes
outcome-measure: Increase or decrease

See these solved cases before continuing.
INSERT INTO results (compound, result) VALUES
  ('NCCS(=O)O', 'Increase'),
  ('CCCCCCCCCCCCCCCCCC(=O)OCC(O)CO (centres unmarked)', 'Increase'),
  ('Nc1c(O)cccc1C(=O)O [3-Hydroxyanthranyl acid]', 'Decrease'),
  ('CC(=O)NCC(=O)O', 'Decrease'),
  ('O=C[C@H](O)[C@@H](O)[C@H](O)CO', 'Increase');

Ask: Need Increase or decrease of O=c1cc[nH]c(=O)[nH]1 , thanks.
Reply: Increase

Ask: Do the same for NCCc1ccc(O)cc1 please
Reply: Increase

Ask: Do the same for Nc1ncnc2c1ncn2[C@@H]1O[C@H](CO)[C@@H](O)[C@H]1O please
Reply: Decrease

Ask: Do the same for O=C[C@H](O)[C@H](O)[C@H](O)CO please
Reply: Decrease

Ask: Do the same for Oc1ccccn1 [2-Hydroxypyridine] please
Reply: Increase

Ask: Do the same for CC(=O)C(=O)O please
Reply: Decrease

Ask: Do the same for O=C(CO)[C@H](O)CO please
Reply: Decrease

Ask: Do the same for NC(=O)NC1NC(=O)NC1=O (centres unmarked) please
Reply: Increase

Ask: Do the same for O=C(O)c1ccccc1 please
Reply: Decrease

* * *

# protocol-summary: LC/MS of serum sample: time from centrifugation to isolation (Table K)
# Type: physicochemical, human
# test-parameters: serum sample, LC/MS; detection intensity vs 30 minutes from centrifugation to isolation
outcome-measure: Increase or decrease

INSERT INTO assay_data (compound, result) VALUES
  ('Nc1ccn([C@@H]2O[C@H](CO)[C@@H](O)[C@H]2O)c(=O)n1', 'Decrease'),
  ('N=C(N)NCCC[C@H](NC(CC(=O)O)C(=O)O)C(=O)O (some centres unmarked)', 'Increase'),
  ('OC[C@H]1O[C@@H](n2cnc3c(O)ncnc32)[C@H](O)[C@@H]1O', 'Decrease'),
  ('NCCc1c[nH]c2ccc(O)cc12', 'Decrease'),
  ('N[C@@H](CC(=O)O)C(=O)O', 'Increase');

Ask: Need Increase or decrease of Nc1nc2c(ncn2[C@@H]2O[C@H](CO)[C@@H](O)[C@H]2O)c(=O)[nH]1 , thanks.
Reply: Decrease

Ask: Do the same for O=c1[nH]cnc2nc[nH]c12 please
Reply: Increase

Ask: Do the same for O=C(O)CC(O)C(=O)O (centres unmarked) please
Reply: Increase

Ask: Do the same for Nc1ncnc2c1ncn2[C@@H]1O[C@H](CO)[C@@H](O)[C@H]1O please
Reply: Decrease

Ask: Do the same for Nc1ncnc2c1ncn2[C@@H]1O[C@H](COP(=O)(O)O)[C@@H](O)[C@H]1O [Adenosine monophosphate] please
Reply: Decrease

Ask: Do the same for Nc1ncnc2nc[nH]c12 please
Reply: Decrease

Ask: Do the same for O=C(O)[C@@H]1CCCN1 please
Reply: Increase

* * *

# protocol-summary: LC/MS of serum sample: time from blood collection to centrifugation (Table J)
# Type: physicochemical, human
# test-parameters: serum sample, LC/MS; detection intensity vs 15 minutes from blood collection to centrifugation
outcome-measure: Increase or decrease

See these solved cases before continuing.
INSERT INTO assay_data (molecule, result) VALUES
  ('C[S+]([O-])CC[C@H](N)C(=O)O (stereo partly shown) [Methionine sulfoxide]', 'Increase'),
  ('N[C@@H](CC(=O)O)C(=O)O [Aspartic acid]', 'Increase'),
  ('O=C(O)CCC(=O)O [Succinic acid]', 'Increase'),
  ('N=C(N)NCCC[C@H](NC(CC(=O)O)C(=O)O)C(=O)O (stereo partly shown) [Argininosuccinic acid]', 'Decrease'),
  ('O=c1[nH]c(=O)c2[nH]cnc2[nH]1 [Xanthine]', 'Increase');

Ask: Need Increase or decrease of N[C@@H](CCC(=O)O)C(=O)O [Glutamic acid] , thanks.
Reply: Increase

Ask: Do the same for N[C@@H](Cc1ccc(O)c(O)c1)C(=O)O [Dopa] please
Reply: Decrease

Ask: Do the same for NC(=O)c1cccnc1 [Nicotinamide] please
Reply: Increase

Ask: Do the same for NCCC(=O)N[C@@H](Cc1cnc[nH]1)C(=O)O [Carnosine, carnosine] please
Reply: Increase

Ask: Do the same for Nc1nc2c(ncn2[C@@H]2O[C@H](CO)[C@@H](O)[C@H]2O)c(=O)[nH]1 [Guanosine] please
Reply: Decrease

Ask: Do the same for NCCc1ccc(O)c(O)c1 [Dopamine] please
Reply: Increase

Ask: Do the same for O=c1ccn([C@@H]2O[C@H](CO)[C@@H](O)[C@H]2O)c(=O)[nH]1 [Uridine] please
Reply: Increase

Ask: Do the same for N=C(N)NCCC[C@H](N)C(=O)O [Arginine] please
Reply: Decrease

Ask: Do the same for CC(C)C[C@H](N)C(=O)O [Leucine] please
Reply: Increase

Ask: Do the same for O=C(O)[C@@H]1CCCN1 [Proline] please
Reply: Increase

Ask: Do the same for O=c1[nH]cnc2nc[nH]c12 [Hypoxanthine] please
Reply: Increase

Ask: Do the same for N[C@@H](Cc1c[nH]cn1)C(=O)O [Histidine] please
Reply: Increase
